assay: Toxicity in mouse Megakaryocyte cells assessed as reduction in thrombocytopenia risk by CFU-MK Assay; format: cell-based; conditions: mouse, megakaryocyte cells (CFU-MK colony formation)
Quantity: EC50

>  <Molecule>
CCNC(=O)c1cc2c(-c3cc(C(C)(C)O)ccc3Oc3c(C)cc(F)cc3C)cn(C)c(=O)c2[nH]1 [ABBV-744]

>  <Assay Result>
3 nM

$$$$

Turning to the following molecule.
Entry CCS(=O)(=O)Nc1ccc(Oc2ccc(F)cc2F)c(-c2cn(C)c(=O)c3[nH]ccc23)c1 [MIVEBRESIB] has what EC50?
645 nM

* * *

assay: Apparent oral clearance in male C57BL6 mouse plasma at 10 mg/kg, ip measured up to 24 hrs by LC-MS/MS analysis; assay type: ADME, organism-based; details: mouse, in vivo, ip, 10 mg/kg, 24 h
Quantity: CL/F (mL/min/kg)
Give the quantity in mL/min/kg, number only.

Param item = "Cc1ccc(C(C)C)cc1Oc1nccc(-c2c(-c3ccc(C(F)(F)F)cc3)ncn2C2CCNCC2)n1" ; retrieve measured CL/F.
418
